Where do these numbers come from? They come from patent US9914732B2.

// FKBP51 (Homo sapiens, UniProt Q13451) Ki records

Query: May I ask what Ki has been recorded for C=C[C@@H]1CN(Cc2ccco2)C(=O)[C@@H]2CCC[C@H]1N2S(=O)(=O)c1cc(Cl)cc(Cl)c1 ?
Response: 1000 to 5000 nM

====

target-or-system: FKBP52 (Homo sapiens, UniProt Q02790)
Sequence (Q02790 50-138 limits assumed): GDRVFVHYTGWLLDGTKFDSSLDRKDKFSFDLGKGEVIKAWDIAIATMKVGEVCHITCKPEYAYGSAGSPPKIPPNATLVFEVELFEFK
pKi: −log10 of the molar value.
measurement-kind: pKi

Some solved cases for reference:
>  <compound>
C=C[C@@H]1CN(CC(=O)OCC)C(=O)[C@@H]2CCC[C@H]1N2S(=O)(=O)c1cc(Cl)cc(Cl)c1

>  <pKi>
6.30 to 7.00

$$$$
>  <compound>
COc1ccc(OCCN2C[C@H](C[C@H](C)O)C3CCCC(C2=O)N3S(=O)(=O)c2cc(Cl)cc(Cl)c2)cc1OC (single isomer, unassigned) [Compound D5]

>  <pKi>
≥ 7.00

$$$$
>  <compound>
O=C1[C@@H]2CCC[C@H]([C@H](CO)CN1Cc1ccccn1)N2S(=O)(=O)c1cc(Cl)cc(Cl)c1

>  <pKi>
≥ 7.00

$$$$

Next:
Query: Entry C=C[C@@H]1CN(Cc2ccccn2)C(=O)[C@@H]2CCC[C@H]1N2S(=O)(=O)c1cc(Br)cc(C(N)=O)c1 : reported pKi = ?
Response: 6.30 to 7.00
